conditions: in ethanol, 298.15 K
observedProperty: solubility (mole fraction)
Provide a numeric answer; units are not to be included.

Please report the recorded solubility (mole fraction) for `COc1cc([N+](=O)[O-])ccc1N` .
0.00534

====

details: in ethyl acetate, 278.15 K
observedProperty: solubility (mole fraction)

Request the reported solubility (mole fraction) associated with `COc1cc([N+](=O)[O-])ccc1N`
0.0186
